Values were extracted from PubChem BioAssay (NCATS).

# test_method_notes: Drug repurposing screens with cells derived from glioblastoma tumor samples (AID 1345199); further: potency means the concentration at half of the fitted maximal effect; nearly all actives have a fitted effect of over 40% in size
# condition_notes: GBM patient neurospheres viability, ATP luminescence, 48 h; tumour line A
Records with an inconclusive call do not appear. Calls of active or inactive are those of the source. The call rests on the fitted dose curve; in most records, active means well fitted inhibition curve with a large enough effect; inconclusive means small, poorly fitted or top-dose-only effect; inactive means flat fitted curve, though single readings scatter.
measured_metric: Potency

[[record]]
compound = "CN1CCC[C@@H]1Cc1c[nH]c2ccc(CCS(=O)(=O)c3ccccc3)cc12"
measured_metric = "Potency"
endpoint_result = "14.1 µM (active)"

[[record]]
compound = "CC(C)(C)C(=O)C(Oc1ccc(Cl)cc1)n1ccnc1 (centres undefined)"
measured_metric = "Potency"
endpoint_result = "12.6 µM (active)"

[[record]]
compound = "Cc1cc(O)cc2c1O[C@](C)(CCC[C@H](C)CCC[C@H](C)CCCC(C)C)CC2"
measured_metric = "Potency"
endpoint_result = "5.01 µM (active)"

[[record]]
compound = "CN(C)CCCN1c2ccccc2CCc2ccccc21"
measured_metric = "Potency"
endpoint_result = "4.47 µM (active)"

[[record]]
compound = "CNCCCC1c2ccccc2C=Cc2ccccc21"
measured_metric = "Potency"
endpoint_result = "6.31 µM (active)"

[[record]]
compound = "CCN(CC)CCNC(=O)c1c(C)[nH]c(/C=C2\\C(=O)Nc3ccc(F)cc32)c1C"
measured_metric = "Potency"
endpoint_result = "11.2 µM (active)"

[[record]]
compound = "NC1CCN(c2cccc(Cl)n2)CC1"
measured_metric = "Potency"
endpoint_result = "11.2 µM (active)"

[[record]]
compound = "OCc1cc(C(O)CNCCCCCCOCCCCc2ccccc2)ccc1O (centres undefined)"
measured_metric = "Potency"
endpoint_result = "7.08 µM (active)"

[[record]]
compound = "CCCCOc1cc(C(=O)OCCN(CC)CC)ccc1N"
measured_metric = "Potency"
endpoint_result = "11.2 µM (active)"

[[record]]
compound = "CCN(CC)C(C)CN1c2ccccc2Sc2ccccc21 (centres undefined)"
measured_metric = "Potency"
endpoint_result = "10 µM (active)"

[[record]]
compound = "CN(C)CCCN1c2ccccc2Sc2ccc(Cl)cc21"
measured_metric = "Potency"
endpoint_result = "3.98 µM (active)"

[[record]]
compound = "CCN(CC)CCNC(C(=O)OCCC(C)C)c1ccccc1 (centres undefined)"
measured_metric = "Potency"
endpoint_result = "25.1 µM (active)"

[[record]]
compound = "CC1=C(C/C=C(\\C)CCC[C@H](C)CCC[C@H](C)CCCC(C)C)C(=O)c2ccccc2C1=O"
measured_metric = "Potency"
endpoint_result = "11.2 µM (active)"

[[record]]
compound = "CC(C(O)c1ccc(O)cc1)N1CCC(Cc2ccccc2)CC1 (centres undefined)"
measured_metric = "Potency"
endpoint_result = "2.82 µM (active)"

[[record]]
compound = "CC(C)(C)NCC(O)COc1ccc(NC(=O)NC2CCCCC2)cc1 (centres undefined)"
measured_metric = "Potency"
endpoint_result = "31.6 µM (active)"

[[record]]
compound = "CN(C)CC[C@@H](c1ccc(Cl)cc1)c1ccccn1"
measured_metric = "Potency"
endpoint_result = "14.1 µM (active)"

[[record]]
compound = "CC(C)C(=O)c1c(C(C)C)nn2ccccc12"
measured_metric = "Potency"
endpoint_result = "8.91 µM (active)"

[[record]]
compound = "O=C1Nc2ccc(Cl)cc2[C@@](C#CC2CC2)(C(F)(F)F)O1"
measured_metric = "Potency"
endpoint_result = "17.8 µM (active)"

[[record]]
compound = "CSc1ccc2c(c1)N(CCC1CCCCN1C)c1ccccc1S2 (centres undefined)"
measured_metric = "Potency"
endpoint_result = "2.82 µM (active)"

[[record]]
compound = "Cc1ccc2nc(N)[nH]c(=O)c2c1Sc1ccncc1"
measured_metric = "Potency"
endpoint_result = "7.08 µM (active)"

[[record]]
compound = "COc1ccc2[nH]c(S(=O)Cc3ncc(C)c(OC)c3C)nc2n1 (centres undefined)"
measured_metric = "Potency"
endpoint_result = "11.2 µM (active)"

[[record]]
compound = "CC(CN1c2ccccc2Sc2ccccc21)N(C)C (centres undefined)"
measured_metric = "Potency"
endpoint_result = "14.1 µM (active)"

[[record]]
compound = "CC(CN(C)C)CN1c2ccccc2CCc2ccccc21 (centres undefined)"
measured_metric = "Potency"
endpoint_result = "6.31 µM (active)"

[[record]]
compound = "CNCCC(Oc1ccc(C(F)(F)F)cc1)c1ccccc1 (centres undefined)"
measured_metric = "Potency"
endpoint_result = "3.55 µM (active)"


* * *

# test_method_notes: Counterscreen qHTS for small molecule stabilizers of the endoplasmic reticulum resident proteome: GLuc-NoTag assay (AID 1508627)
# condition_notes: Gaussia luciferase NoTag secretion counterscreen, luminescence, thapsigargin 100 nM for final 4 h; series mostly up to 76.4 µM
Inconclusive results are not listed. Activity calls are given as the source filed them. The call rests on the fitted dose curve; in most records, active means well fitted inhibition curve with a large enough effect; inconclusive means small, poorly fitted or top-dose-only effect; inactive means no such curve, though single readings can be large or run the other way.
Outcomes: TRUE (active), FALSE (inactive)

[[record]]
compound = "CCCCCCCCCCCCCCCC(=O)NCCO"
qualitative_label = "FALSE"

[[record]]
compound = "CSc1ccc2c(c1)N(CCC1CCCCN1C)c1ccccc1S2 (stereo not drawn)"
qualitative_label = "TRUE"

[[record]]
compound = "CN(C)CCCN1c2ccccc2CCc2ccccc21"
qualitative_label = "FALSE"

[[record]]
compound = "C=CCn1c(=O)n([C@@H]2O[C@H](CO)[C@@H](O)[C@H]2O)c2nc(N)[nH]c(=O)c21"
qualitative_label = "FALSE"

[[record]]
compound = "CCN(CC)CCOC(=O)C1(C2CCCCC2)CCCCC1"
qualitative_label = "FALSE"

[[record]]
compound = "O=c1cc(CO)occ1O"
qualitative_label = "FALSE"

[[record]]
compound = "CC(C(O)c1ccc(O)cc1)N1CCC(Cc2ccccc2)CC1 (stereo not drawn)"
qualitative_label = "FALSE"

[[record]]
compound = "COc1cc(C)c(Cc2cnc(N)nc2N)cc1OC"
qualitative_label = "FALSE"


* * *

# test_method_notes: qHTS of pediatric cancer cell lines to identify multiple opportunities for drug repurposing: Primary screen for OHS-50 cells (AID 1347103); further: nearly all actives have a fitted effect of over 40% in size
# condition_notes: OHS-50 osteosarcoma viability, CellTiter-Glo luminescence, 48 h; series mostly up to 57.3 µM
Records with an inconclusive call do not appear. Active and inactive are the calls of the source. Calls come from the whole dose curve; as a rule, active = well fitted cell-killing curve with a large enough effect; inconclusive = small, poorly fitted or top-dose-only effect; inactive = no such curve, though single readings can be large or run the other way.
Outcomes: active, inactive

[[record]]
compound = "CN1[C@@H]2CC[C@H]1CC(OC(=O)C(O)c1ccccc1)C2 (stereo partly specified)"
qualitative_label = "inactive"

[[record]]
compound = "C#CCN(C)Cc1ccccc1"
qualitative_label = "inactive"

[[record]]
compound = "CSc1ccc2c(c1)C(N1CCN(C)CC1)Cc1ccccc1S2 (stereo unspecified)"
qualitative_label = "active"

[[record]]
compound = "O=C1OC(OC(=O)c2cccnc2Nc2cccc(C(F)(F)F)c2)c2ccccc21 (stereo unspecified)"
qualitative_label = "inactive"

[[record]]
compound = "CCOC(CN1CCN(CC(C)C(=O)c2ccccc2)CC1)c1ccccc1 (stereo unspecified)"
qualitative_label = "inactive"

[[record]]
compound = "CC1(C)Oc2ccc(C#N)cc2[C@@H](N2CCCC2=O)[C@@H]1O"
qualitative_label = "inactive"


* * *

# Tested on: PC26
# test_method_notes: qHTS profiling for inhibitors of Plasmodium falciparum proliferation (AID 504749); further: nearly all actives have a fitted effect of over 60% in size
# condition_notes: P. falciparum in erythrocytes, SYBR Green DNA, 72 h; series mostly up to 28.7 µM
Results filed as inconclusive are left out. Activity calls are given as the source filed them. Calls come from the whole dose curve; as a rule, active = well fitted inhibition curve with a large enough effect; inconclusive = small, poorly fitted or top-dose-only effect; inactive = flat fitted curve, though single readings scatter.
Outcomes: class 1 for active, class 0 for inactive

[[record]]
molecule = "O=C(O)CC(O)C(=O)O (stereo unspecified)"
qualitative_label = "class 0"

[[record]]
molecule = "O=c1cc[nH]c(=S)[nH]1"
qualitative_label = "class 0"

[[record]]
molecule = "Nc1ccc(S(=O)(=O)NC(=O)c2ccccc2)cc1"
qualitative_label = "class 0"

[[record]]
molecule = "CC12CCC(CC1)C(C)(C)O2"
qualitative_label = "class 0"

[[record]]
molecule = "CCCCN1CCCC[C@H]1C(=O)Nc1c(C)cccc1C"
qualitative_label = "class 0"

[[record]]
molecule = "CC(CN1c2ccccc2Sc2ccccc21)N(C)C (stereo unspecified)"
qualitative_label = "class 0"

[[record]]
molecule = "C#CCN(C)Cc1ccccc1"
qualitative_label = "class 0"

[[record]]
molecule = "CC(=O)NC(Cc1ccccc1)C(=O)O (stereo unspecified)"
qualitative_label = "class 0"

[[record]]
molecule = "CCN(CC)CCNC(=O)c1cc(Cl)c(N)cc1OC"
qualitative_label = "class 0"

[[record]]
molecule = "CCOc1ccc2ccccc2c1C(=O)N[C@@H]1C(=O)N2[C@@H]1SC(C)(C)[C@@H]2C(=O)O"
qualitative_label = "class 0"

[[record]]
molecule = "Cc1ccc2nc(N)[nH]c(=O)c2c1Sc1ccncc1"
qualitative_label = "class 0"

[[record]]
molecule = "Nc1ccc(S(=O)(=O)Nc2ccccc2)cc1"
qualitative_label = "class 0"

[[record]]
molecule = "CCCCc1ncc(/C=C(\\Cc2cccs2)C(=O)O)n1Cc1ccc(C(=O)O)cc1"
qualitative_label = "class 0"

[[record]]
molecule = "O=c1cc[nH]c(=O)[nH]1"
qualitative_label = "class 0"

[[record]]
molecule = "Cc1ncc(COP(=O)(O)O)c(C=O)c1O"
qualitative_label = "class 0"

[[record]]
molecule = "Cc1ccc(C(C)C)cc2c(C)ccc1-2"
qualitative_label = "class 0"

[[record]]
molecule = "CCN(CC)CCSC(=O)C(c1ccccc1)c1ccccc1"
qualitative_label = "class 0"

[[record]]
molecule = "C[C@@H]1CN(c2c(F)c(F)c3c(=O)c(C(=O)O)cn(C4CC4)c3c2F)C[C@H](C)N1"
qualitative_label = "class 0"

[[record]]
molecule = "CCCCCCCCCCCCOS(=O)(=O)O"
qualitative_label = "class 0"

[[record]]
molecule = "O=C(O)[C@@H]1CSCN1"
qualitative_label = "class 0"

[[record]]
molecule = "CC(C)(C)C(=O)C(Oc1ccc(Cl)cc1)n1ccnc1 (stereo unspecified)"
qualitative_label = "class 1"

[[record]]
molecule = "Cc1cc(O)cc2c1O[C@](C)(CCC[C@H](C)CCC[C@H](C)CCCC(C)C)CC2"
qualitative_label = "class 0"

[[record]]
molecule = "Cc1cc2c(cc1S(N)(=O)=O)S(=O)(=O)CCC2"
qualitative_label = "class 0"

[[record]]
molecule = "CCOC(=O)[C@H](CCc1ccccc1)N[C@@H](C)C(=O)N1C(=O)N(C)C[C@H]1C(=O)O"
qualitative_label = "class 0"

[[record]]
molecule = "O=C1O[C@H]([C@@H](O)CO)C(O)=C1O"
qualitative_label = "class 0"

[[record]]
molecule = "COc1cc(C(=O)N2CCOCC2)cc(OC)c1OC"
qualitative_label = "class 0"

